target: MASP-2 CCP2-SP (Homo sapiens (Human)); assay: MASP-2 co-crystallization, X-ray crystallography and structure analysis (H-bonds, van der Waals contacts); conditions: Table A7-2; between pharmacophore elements of the bound compound
Sequence (O00187 445-686): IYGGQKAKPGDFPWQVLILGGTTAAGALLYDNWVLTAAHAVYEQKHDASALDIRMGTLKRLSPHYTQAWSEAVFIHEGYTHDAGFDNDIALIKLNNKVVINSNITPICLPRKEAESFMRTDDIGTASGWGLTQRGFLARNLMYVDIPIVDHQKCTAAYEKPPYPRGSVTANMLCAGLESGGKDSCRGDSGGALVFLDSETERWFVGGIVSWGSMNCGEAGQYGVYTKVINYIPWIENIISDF
Sequence (O00187 364-432 partner): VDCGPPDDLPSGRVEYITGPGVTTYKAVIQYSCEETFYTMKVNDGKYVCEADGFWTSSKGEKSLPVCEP
Counter-ions that a name gives are not always drawn.
Recorded Pharmacophore torsion angle a(O1, O2, N2, CA2) for the following molecules
Reply: number alone, nothing else.

| molecule | assay system | measured number |
| --- | --- | --- |
| Cc1nc(N)ccc1CNC(=O)C(C)NC(=O)C1CC(c2cccc3ccccc23)CCN1.Cl.Cl (stereo not drawn) [1297_6] | MASP-2 CCP2-SP (Homo sapiens (Human)) | 131.04 |

(Q) Determine its reported Pharmacophore torsion angle a(O1, O2, N2, CA2): CC(NC(=O)C(CCc1ccccc1)NCc1ccc(C(=O)N2CCOCC2)cc1)C(=O)NCc1ccc(C(=N)N)cc1.Cl.Cl (stereo not drawn) [1153_A]
(A) 116.41

(Q) // Input: C[C@H](NC(=O)[C@H]1C[C@@H](c2ccccc2)CCN1)C(=O)NCc1cc(Cl)ccc1O.Cl [1078_3] . Output its Pharmacophore torsion angle a(O1, O2, N2, CA2) only.
(A) 140.71

(Q) Fill in Pharmacophore torsion angle a(O1, O2, N2, CA2) for record CC(=O)Nc1ccc(CCNC(CCc2ccccc2)C(=O)NC(C)C(=O)NCc2ccc(C(=N)N)cc2)cc1.Cl.Cl (stereo not drawn) [1345_1]
(A) 138.94

(Q) Report Pharmacophore torsion angle a(O1, O2, N2, CA2), nothing else, for this molecule: C[C@H](NC(=O)[C@H](N)CCCc1ccccc1)C(=O)NCc1ccc(C(=N)N)cc1.Cl.Cl [1042_1]
(A) 136.01

(Q) Please supply the value of reported Pharmacophore torsion angle a(O1, O2, N2, CA2) for the item Cc1nc(N)ccc1CNC(=O)[C@H](C)NC(=O)[C@H]1C[C@@H](c2cccc3ccccc23)CCN1.Cl.Cl [1297_5]
(A) 122.50

(Q) Tell me its Pharmacophore torsion angle a(O1, O2, N2, CA2) given C[C@H](NC(=O)[C@H]1C[C@@H](c2ccccc2)CCN1)C(=O)NCc1cc(Cl)ccc1O.Cl [1078_2] as the entry.
(A) 137.47

(Q) Note Pharmacophore torsion angle a(O1, O2, N2, CA2) for the molecule shown: C[C@H](NC(=O)[C@H]1C[C@@H](c2ccccc2)CCN1)C(=O)NCc1cc(Cl)ccc1O.Cl [1078_7]
(A) 143.84

(Q) Note Pharmacophore torsion angle a(O1, O2, N2, CA2) for the molecule shown: Cc1nc(N)ccc1CNC(=O)[C@H](C)NC(=O)[C@H]1C[C@H](Cc2ccccc2)CN1 [compound 1304]
(A) 125.90

(Q) Identify the reported Pharmacophore torsion angle a(O1, O2, N2, CA2) for the following entry. C[C@H](NC(=O)[C@H]1C[C@H](Cc2ccccc2)CN1)C(=O)NCc1ccc(C(=N)N)cc1.Cl.Cl [1306_1]
(A) 136.58

(Q) Indicate its recorded Pharmacophore torsion angle a(O1, O2, N2, CA2); the molecule in question is C[C@H](NC(=O)[C@H]1C[C@@H](c2ccccc2)CCN1)C(=O)NCc1cc(Cl)ccc1O.Cl [1078_1]
(A) 140.46

(Q) // Input: Cc1nc(N)ccc1CNC(=O)[C@H](C)NC(=O)[C@H]1C[C@H](Cc2cccc(Cl)c2)CN1.Cl.Cl [1328_3] . Output its Pharmacophore torsion angle a(O1, O2, N2, CA2) only.
(A) 131.79

(Q) Return Pharmacophore torsion angle a(O1, O2, N2, CA2) for the following molecule: Cc1nc(N)ccc1CNC(=O)[C@H](C)NC(=O)[C@H]1C[C@H](Cc2ccccc2Br)CN1.O=C(O)C(F)(F)F.O=C(O)C(F)(F)F [1372_B]
(A) 109.73

(Q) Look up Pharmacophore torsion angle a(O1, O2, N2, CA2) of Cc1nc(N)ccc1CNC(=O)[C@H](C)NC(=O)[C@H]1C[C@@H](c2ccccc2)CCN1 [compound 1253, Dihydrochloride] and report it.
(A) 126.24

(Q) Return Pharmacophore torsion angle a(O1, O2, N2, CA2) for the following molecule: C[C@H](NC(=O)[C@H]1C[C@@H](c2ccccc2)CCN1)C(=O)NCc1cnc2[nH]cc(Cl)c2c1 [compound 1433]
(A) 127.94
